- ASSAYED_TARGET: human tau(pS422) (Homo sapiens, UniProt P10636, S739X)
- MEASUREMENT_PROTOCOL: BIAcore kinetic screening and kinetic rates of humanized VH/VL combinations
- Format: binding
- DETAILS: 25 °C; VL17 or VL19 with VH variants
TEST_READOUT: t/2 diss (min)
Note: unit min is implicit; provide only the numeric part.

Use the examples below as a reference point.
For the molecule VL17 with VH00: anti-human tau(pS422) antibody; VH SEQ ID NO: 11, VL SEQ ID NO: 37 (antibody, listed as Oryctolagus cuniculus, V domains shown, humanized sequence) VH: QSVEESGGRLVTPGTPLTLTCTVSGFSLSSNAINWVRQAPGKGLEWIGYIAVSGNTYYASWAKGRFTISKASTTVDLKMTSPTAEDTGTYFCGKSNIWGPGTLVTVSL VL: DIQMTQSPSSLSASVGDRVTITCRSSQSVRTNKLAWFQQKPGQPPKRLIYSASTLDFGVPSRFSGSGSGTEFTLTISSLQPEDFATYYCLGYFDCSIADCVAFGGGTKVEIK , what t/2 diss is on record?
23

For the molecule VL19 with VH01: anti-human tau(pS422) antibody; VH SEQ ID NO: 46, VL SEQ ID NO: 38 (antibody, V domains shown, humanized sequence) VH: QQLVESGGGLVQPGGSLRLSCAASGFSLSSNAINWVRQAPGKGLEWVGYIAVSGNTYYASWAKGRFTISRDNSKNTLYLQMNSLRAEDTAVYYCGKSNIWGQGTLVTVSS VL: AQVMTQSPSSLSASVGDRVTITCRSSQSVRTNKLAWFQQKPGQPPKRLIYSASTLDFGVPSRFSGSGSGTEFTLTISSLQPEDFATYYCLGYFDCSIADCVAFGGGTKVEIK , what t/2 diss is on record?
6

For the molecule VL17 with VH15: anti-human tau(pS422) antibody; VH SEQ ID NO: 51, VL SEQ ID NO: 37 (antibody, V domains shown, humanized sequence) VH: QSVVESGGGLVQPGGSLRLSCAASGFSLSSNAINWVRQAPGKGLEWVGYIAVSGNTYYASWAKGRFTISRDNSKNTLYLQMNSLRAEDTAVYYCGKSNIWGPGTLVTVSS VL: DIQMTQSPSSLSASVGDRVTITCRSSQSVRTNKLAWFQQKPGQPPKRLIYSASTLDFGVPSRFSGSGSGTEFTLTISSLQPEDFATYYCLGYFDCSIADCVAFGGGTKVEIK , what t/2 diss is on record?
4

More entries:
For the molecule VH14 with VL17: anti-human tau(pS422) antibody; VH SEQ ID NO: 50, VL SEQ ID NO: 37 (antibody, V domains shown, humanized sequence) VH: QQLVESGGGLVQPGGSLRLSCAASGFSLSSNAINWVRQAPGKGLEWVGYIAVSGNTYYASWAKGRFTISRDNSKNTLYLQMNSLRAEDTAVYYCGKSNIWGPGTLVTVSS VL: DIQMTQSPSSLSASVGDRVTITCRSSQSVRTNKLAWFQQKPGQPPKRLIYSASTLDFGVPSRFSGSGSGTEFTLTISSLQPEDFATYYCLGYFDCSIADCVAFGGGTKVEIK , what t/2 diss is on record?
4

Taken from patent US10251952B2.
